# assay_method_text: Liver microsome stability, dog
# Type: in vitro ADME
# setup_conditions: dog, liver microsomes, liver microsome stability; read-out: Dog T1/2
Each item that follows carries a reported half-life.

| compound | half-life [min] |
| --- | --- |
| [2H]CC([2H])C(C)(C)C(=O)N(O)Cc1cc(F)cc(F)c1 (stereo not drawn) [Compound 26] | 2.31 |
| CCC(C)(C)C(=O)N(O)Cc1cc(F)cc(F)c1 [Compound 13] | 2.34 |
| [2H]C([2H])C([2H])([2H])C(C)(C)C(=O)N(O)Cc1ccccc1 [Compound 28] | 3.5 |
| C=CC(C)(C)C(=O)N(O)Cc1ccccc1 [Compound 19] | 6 |
| [2H]CC([2H])C(C)(C)C(=O)N(O)Cc1ccccc1 (stereo not drawn) [Compound 27] | 1.5 |
| CCC(C)(C)C(=O)N(O)Cc1ccccc1 [Compound 92, reference compound] | 7.1 |
